Target: T1, human Trop-2-His (human, UniProt P09758 27-274, limits assumed)
T1 construct: by analogy with the macaque construct it is probably the extracellular domain with a His tag; also called Trop-2-His protein
T1 sequence: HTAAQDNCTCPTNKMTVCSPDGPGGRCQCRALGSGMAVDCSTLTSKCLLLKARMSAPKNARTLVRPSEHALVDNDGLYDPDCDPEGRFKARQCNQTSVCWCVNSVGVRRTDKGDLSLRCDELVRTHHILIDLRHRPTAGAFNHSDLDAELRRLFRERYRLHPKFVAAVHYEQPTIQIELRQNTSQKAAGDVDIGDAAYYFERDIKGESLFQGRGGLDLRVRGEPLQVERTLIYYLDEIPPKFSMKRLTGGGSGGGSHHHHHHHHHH
Test: SPR (Biacore 8K), antibody captured, Trop-2-His as analyte
In this section we review reported kon values for a set of binders.
Entry rule: numbers only, all in M⁻¹ s⁻¹.

Guide cases for kon, answers given:
Task item: Name the reported kon value associated with the binder hz-Ab2-1.2 (antibody, human IgG1, kappa, V domains shown, Humanized antibody) VH: EVQLVESGPGLIQPGGSLRLSCAVSGFSLTYYGIDWVRQPPGKGLEWVGVIWGSGNTKYNYALKSRLTISKDNSKSTLYLQMNSLRAEDTAVYYCARFYEGFAYWGQGTLVTVSS VL: DIQMTQSPSSLSASVGDRVTITCKASQDINSYLSWFQQKPGKAPKTLIYRANRLVEGVPSRFSGSGSGQDYTLTISSLQPEDFATYYCLQYDEFPLTFGQGTKVEIKR
Reply: 3.56e+06

Task item: Follow-up item: hz-Ab35-2.3 (antibody, human IgG1, kappa, V domains shown, Humanized antibody) VH: QVQLVQSGAEVKKPGASVKVSCKASGYTFTSSDINWVRQRPGQGLEWMGWIYPRDGSKKYNEKFKGRVTMTVDTSTSTVYMELSSLRSEDTAVYYCATRFATVVSNYGLDPWGQGTLVTVSS VL: EIVLTQSPATLSLSPGERATLSCSASSSVNYIYWYQRKPGQAPRLLIYDTSNLASGIPARFSGSGSGTDYTLTISSLEPEDFAVYYCQQWNSYPLTFGQGTKVEIKR
Reply: 416000

More entries:
Task item: Name the reported kon value associated with the binder hz-Ab2-1.3 (antibody, human IgG1, kappa, V domains shown, Humanized antibody) VH: QVQLQESGPGLVKPSETLSLTCTVSGFSLTYYGIDWIRQPPGKGLEWIGVIWGSGNTKYNSALKSRVTISKDNSKSQFSLKLSSVTAADTAVYYCARFYEGFAYWGQGTLVTVSS VL: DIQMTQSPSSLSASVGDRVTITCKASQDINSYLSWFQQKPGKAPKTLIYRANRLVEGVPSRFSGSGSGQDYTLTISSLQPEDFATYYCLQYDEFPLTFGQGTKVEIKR
Reply: 1e+06

Task item: Follow-up item: hz-Ab2-1.1 (antibody, human IgG1, kappa, V domains shown, Humanized antibody) VH: EVQLVESGGGLIQPGGSLRLSCAVSGFSLTYYGIDWVRQPPGKGLEWVSVIWGSGNTKYNSALKSRLTISRDNSKSTLYLQMNSLRAEDTAVYYCARFYEGFAYWGQGTLVTVSS VL: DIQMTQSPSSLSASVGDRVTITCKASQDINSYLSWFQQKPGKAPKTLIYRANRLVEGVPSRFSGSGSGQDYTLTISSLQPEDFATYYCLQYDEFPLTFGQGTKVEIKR
Reply: 60600

Task item: Follow-up item: TINA (antibody, INN chains, looked up, V domains shown) VH: QVQLVQSGAEVKKPGASVKVSCKASGYTFTTAGMQWVRQAPGQGLEWMGWINTHSGVPKYAEDFKGRVTISADTSTSTAYLQLSSLKSEDTAVYYCARSGFGSSYWYFDVWGQGTLVTVSS VL: DIQMTQSPSSLSASVGDRVTITCKASQDVSTAVAWYQQKPGKAPKLLIYSASYRYTGVPSRFSGSGSGTDFTLTISSLQPEDFAVYYCQQHYITPLTFGQGTKLEIK
Reply: 191000
